- Target: HU alpha-beta heterodimer (Escherichia coli, UniProt P0ACF0;P0ACF4 1-90;1-90)
- Sequence (P0ACF0 whole entry, chain 1 of 2): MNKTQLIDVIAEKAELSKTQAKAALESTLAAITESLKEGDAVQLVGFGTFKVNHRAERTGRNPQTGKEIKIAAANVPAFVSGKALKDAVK
- Sequence (P0ACF4 whole entry, chain 2 of 2): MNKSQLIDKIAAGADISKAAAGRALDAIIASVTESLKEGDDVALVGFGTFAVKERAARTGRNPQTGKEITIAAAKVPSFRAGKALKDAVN
- Test Description: EMSA
Endpoint Label: Kd

1) dsDNA 40 (dsDNA) DNA 1: AGTCTAGAGTGCAGTTGAGTCCTTGCTACGACGGATCCCT DNA 2: AGGGATCCGTCGTAGCAAGGACTCAACTGCACTCTAGACT; 7 nM
